- Tested on: récepteurs surrénaliens de l'angiotensine II
- protocol text: Displacement of radioligand [125I]-SIAII specifically bound to rat adrenal angiotensin II receptors
- Format: binding
- experimental conditions: competitor 1E-5M, rat adrenal homogenate, 60 min at 25°C, 10 µM
measurement kind: % de déplacement du ligand marqué

Sample answers from the record:
- item smiles: "CCCCc1nc(-c2ccccc2)nc(SCCO)c1Cc1ccc(NC(=O)c2ccccc2S(=O)(=O)O)cc1"
  measurement kind: "% de déplacement du ligand marqué"
  test value: "63%"
- item smiles: "CCCc1nc(C)nc(OCCO)c1Cc1ccc(-c2ccccc2C(=O)O)cc1"
  measurement kind: "% de déplacement du ligand marqué"
  test value: "65%"

Next compound, please.
Consider the compound shown here: CCCc1nc(C)nc(OC)c1Cc1ccc(-c2ccccc2-c2nn[nH]n2)cc1 What is its recorded % de déplacement du ligand marqué?
71%

====

- Test system: récepteurs surrénaliens de l'angiotensine II
- protocol text: Displacement of radioligand [125I]-SIAII specifically bound to rat adrenal angiotensin II receptors
- Type: binding
- experimental conditions: competitor 1E-5M, rat adrenal homogenate, 60 min at 25°C, 10 µM
I would appreciate it if you labelled entries criterion met when % de déplacement du ligand marqué is 80% or higher, otherwise criterion not met.

- molecule: "CCCc1nc(C)n(CC(=O)OCC)c(=O)c1Cc1ccc(NC(=O)c2ccccc2S(=O)(=O)O)cc1 [Exemple 13]"
  discrete label: "criterion met"
- molecule: "CCCc1nc(C)nc(SCC(=O)OCC)c1Cc1ccc(NC(=O)c2ccccc2S(=O)(=O)O)cc1 [Exemple 24]"
  discrete label: "criterion met"

Form field: % de déplacement du ligand marqué at least 80%? Entry: CCCCc1nc(-c2ccccc2)nc(SCC(=O)OCC)c1Cc1ccc(NC(=O)c2ccccc2S(=O)(=O)O)cc1 [Exemple 75]
criterion not met

Hi team, for CCCc1nc(C)nc(SC)c1Cc1ccc(NC(=O)c2ccccc2S(=O)(=O)O)cc1 [Exemple 59] , is the recorded % de déplacement du ligand marqué at or above 80%?
criterion met

Quick check: does CCCc1nc(C)nc(OC(=O)N(C)C)c1Cc1ccc(NC(=O)c2ccccc2S(=O)(=O)O)cc1 [Exemple 27] have % de déplacement du ligand marqué greater than or equal to 80%?
criterion not met

Please tell me: is the molecule CCCc1nc(C)nc(N2CCOCC2)c1Cc1ccc(NC(=O)c2ccccc2S(=O)(=O)O)cc1 [Exemple 56] at or over 80% in terms of % de déplacement du ligand marqué?
criterion met

Please indicate if the recorded % de déplacement du ligand marqué for CCCc1nc(C)n(CC(=O)OCC)c(=O)c1Cc1ccc(-c2ccccc2-c2nn[nH]n2)cc1 [Exemple 32] meets or exceeds 80%.
criterion met

# bool: % de déplacement du ligand marqué of CCCc1nc(C)nc(SCCO)c1Cc1ccc(NC(=O)c2ccccc2S(=O)(=O)O)cc1 [Exemple 54] >= 80%
criterion met

Decide: % de déplacement du ligand marqué of CCCCc1nc(C(C)C)nc(SCCO)c1Cc1ccc(NC(=O)c2ccccc2S(=O)(=O)O)cc1 [Exemple 78] >= 80%?
criterion not met

Does % de déplacement du ligand marqué meet or surpass 80% for CCCCc1nc(C)nc(SCCO)c1Cc1ccc(NC(=O)c2ccccc2S(=O)(=O)O)cc1 [Exemple 55] ?
criterion met

Has CCCCc1nc(C(C)C)nc(SCC(=O)OCC)c1Cc1ccc(NC(=O)c2ccccc2S(=O)(=O)O)cc1 [Exemple 76] a recorded % de déplacement du ligand marqué greater than or equal to 80%?
criterion met

Item CCCCc1nc(C)nc(SCC(=O)OCC)c1Cc1ccc(NC(=O)c2ccccc2S(=O)(=O)O)cc1 [Exemple 61] with % de déplacement du ligand marqué of 80% or above?
criterion met

Reported % de déplacement du ligand marqué reaches at least 80% for CCCc1nc(C)nc(SCC(=O)OCC)c1Cc1ccc(-c2ccccc2-c2nn[nH]n2)cc1 [Exemple 33] ?
criterion not met
